STUDY_SYSTEM: cathepsin D (Bos taurus)
Construct: from tissue; host or cells: bovine spleen
Sequence (P80209 45-390): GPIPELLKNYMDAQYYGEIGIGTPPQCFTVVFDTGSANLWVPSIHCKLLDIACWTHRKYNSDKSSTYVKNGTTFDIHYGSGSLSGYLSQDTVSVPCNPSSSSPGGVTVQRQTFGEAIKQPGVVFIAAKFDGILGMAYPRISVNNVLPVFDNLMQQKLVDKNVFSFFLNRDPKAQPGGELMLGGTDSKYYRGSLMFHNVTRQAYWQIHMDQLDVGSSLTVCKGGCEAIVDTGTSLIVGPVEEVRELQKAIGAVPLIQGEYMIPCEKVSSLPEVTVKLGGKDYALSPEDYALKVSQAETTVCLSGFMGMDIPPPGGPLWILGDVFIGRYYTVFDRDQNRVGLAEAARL
ASSAY_PROTOCOL: Inhibition of cathepsin D (CTD)
Format: biochemical, bovine
pIC50: −log10 of the molar value.
RECORDED_ENDPOINT: pIC50

1) CO[C@H]1C(=O)N2C(C(=O)N3CCCCC3)=C(C)C3(CC3(c3ccccc3)c3ccccc3)S(=O)(=O)[C@H]12 (stereo partly shown) [Example 11] = 7.50

* * *

STUDY_SYSTEM: cathepsin C (Bos taurus, UniProt Q3ZCJ8)
Construct: from tissue; host or cells: bovine spleen
Sequence (Q3ZCJ8 231-394 limits assumed): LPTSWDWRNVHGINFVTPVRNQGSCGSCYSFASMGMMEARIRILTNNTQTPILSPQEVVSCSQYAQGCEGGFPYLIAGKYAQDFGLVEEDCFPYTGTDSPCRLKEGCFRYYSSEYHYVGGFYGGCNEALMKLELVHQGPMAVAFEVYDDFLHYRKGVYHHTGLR
Sequence (Q3ZCJ8 395-463 limits assumed): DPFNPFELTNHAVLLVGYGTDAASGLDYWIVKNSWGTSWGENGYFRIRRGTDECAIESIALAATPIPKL
Sequence (Q3ZCJ8 25-134 limits assumed): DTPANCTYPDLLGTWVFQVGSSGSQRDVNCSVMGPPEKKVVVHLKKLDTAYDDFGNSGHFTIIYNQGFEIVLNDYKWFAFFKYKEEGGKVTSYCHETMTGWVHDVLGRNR
ASSAY_PROTOCOL: Inhibition of cathepsin C (CTC)
Assay type: biochemical, bovine
CONDITION_SUMMARY: cathepsin C, pH 5.4, 10 minute preincubation, 22° C.; read-out: IC50 CTC
RECORDED_ENDPOINT: IC50

1. CCO[C@H]1C(=O)N2C(C(=O)OCC(Cl)(Cl)Cl)=C(C)C3(CC3(c3ccccc3)c3ccccc3)S(=O)(=O)[C@H]12 (stereo partly shown) [Example 7] = > 10 µM
2. CC1=C(C(=O)OC(c2ccccc2)c2ccccc2)N2C(=O)[C@H](Br)[C@H]2S(=O)(=O)C12CC2(c1ccccc1)c1ccccc1 (single isomer, unassigned) [Example 2] = > 38.5 µM
3. CC1=C(C(=O)OC(C)(C)C)N2C(=O)[C@H](Br)[C@H]2S(=O)(=O)C12CC2(c1ccccc1)c1ccccc1 (stereo partly shown) [Example 3] = > 40 µM
4. CO[C@H]1C(=O)N2C(C(=O)N3CCCC3)=C(C)C3(CC3(c3ccccc3)c3ccccc3)S(=O)(=O)[C@H]12 (stereo partly shown) [Example 10] = > 9.99 µM
5. CO[C@H]1C(=O)N2C(C(=O)N3CCCCC3)=C(C)C3(CC3(c3ccccc3)c3ccccc3)S(=O)(=O)[C@H]12 (stereo partly shown) [Example 11] = > 10 µM
6. CC1=C(C(=O)OC(c2ccccc2)c2ccccc2)N2C(=O)[C@H](Cl)[C@H]2S(=O)(=O)C12CC2(c1ccccc1)c1ccccc1 (single isomer, unassigned) [Example 1] = > 60 µM
7. CC1=C(C(=O)N2CCCC2)N2C(=O)[C@H](Br)[C@H]2S(=O)(=O)C12CC2(c1ccccc1)c1ccccc1 (stereo partly shown) [Example 6] = > 9.77 µM

* * *

STUDY_SYSTEM: plasmin (Homo sapiens, UniProt P00747)
Sequence (P00747 581-810 limits assumed): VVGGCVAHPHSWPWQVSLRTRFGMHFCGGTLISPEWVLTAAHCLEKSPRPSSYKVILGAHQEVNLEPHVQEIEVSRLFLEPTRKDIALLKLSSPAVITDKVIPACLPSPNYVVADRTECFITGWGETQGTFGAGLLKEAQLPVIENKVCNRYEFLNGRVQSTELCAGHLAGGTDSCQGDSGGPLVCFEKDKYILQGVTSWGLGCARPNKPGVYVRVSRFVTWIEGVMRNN
Sequence (P00747 97-580 partner limits assumed): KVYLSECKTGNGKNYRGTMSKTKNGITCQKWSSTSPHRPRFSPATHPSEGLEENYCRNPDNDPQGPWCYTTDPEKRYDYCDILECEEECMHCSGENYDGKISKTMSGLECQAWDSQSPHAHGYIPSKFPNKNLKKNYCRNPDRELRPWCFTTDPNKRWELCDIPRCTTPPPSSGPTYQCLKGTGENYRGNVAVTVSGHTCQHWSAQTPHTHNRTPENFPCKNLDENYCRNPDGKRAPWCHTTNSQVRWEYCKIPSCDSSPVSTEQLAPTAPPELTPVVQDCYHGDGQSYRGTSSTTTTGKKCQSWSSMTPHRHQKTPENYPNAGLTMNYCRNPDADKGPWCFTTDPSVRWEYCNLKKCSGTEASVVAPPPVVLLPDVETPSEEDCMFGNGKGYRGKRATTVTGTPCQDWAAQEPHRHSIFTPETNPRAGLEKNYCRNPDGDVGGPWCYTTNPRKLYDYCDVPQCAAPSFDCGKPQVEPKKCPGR
ASSAY_PROTOCOL: Inhibition of plasmin (PTH)
CONDITION_SUMMARY: pH 8.9, 10 minute preincubation, 22° C.
IC50 reference
RECORDED_ENDPOINT: IC50 (µM)

1) CC1=C(C(=O)OC(c2ccccc2)c2ccccc2)N2C(=O)[C@H](Br)[C@H]2S(=O)(=O)C12CC2(c1ccc(Cl)cc1)c1ccc(Cl)cc1 (single isomer, unassigned) = 2.21
2) CC1=C(C(=O)OC(c2ccccc2)c2ccccc2)N2C(=O)[C@H](Br)[C@H]2S(=O)(=O)C12CC2(c1ccc(F)cc1)c1ccc(F)cc1 (single isomer, unassigned) = 3.19
3) CC1=C(C(=O)OC(c2ccccc2)c2ccccc2)N2C(=O)[C@H](Br)[C@H]2S(=O)(=O)C12CC2(C)c1ccccc1 (stereo partly shown) = 5.5

* * *

STUDY_SYSTEM: plasmin (Homo sapiens)
ASSAY_PROTOCOL: Inhibition of plasmin (PTH)
CONDITION_SUMMARY: pH 8.9, 10 minute preincubation, 22° C.
pIC50: −log10 of the molar value.
pIC50 reference
RECORDED_ENDPOINT: pIC50

1. CC1=C(C(=O)OC(C)(C)C)N2C(=O)[C@H](Br)[C@H]2S(=O)(=O)C12CC2(c1ccccc1)c1ccccc1 (stereo partly drawn) = 5.26
2. CC1=C(C(=O)OC(c2ccccc2)c2ccccc2)N2C(=O)[C@H](Br)[C@H]2S(=O)(=O)C12CC2(c1ccccc1)c1ccccc1 (single isomer, unassigned) = 5.49

* * *

STUDY_SYSTEM: cathepsin C (Bos taurus, UniProt Q3ZCJ8)
Construct: from tissue; host or cells: bovine spleen
ASSAY_PROTOCOL: Inhibition of cathepsin C (CTC)
Format: biochemical, bovine
pIC50: −log10 of the molar value.
RECORDED_ENDPOINT: pIC50

1) CO[C@H]1C(=O)N2C(C(=O)OCC(Cl)(Cl)Cl)=C(C)C3(CC3(c3ccccc3)c3ccccc3)S(=O)(=O)[C@H]12 (stereo partly drawn) = < 5.00
2) CC1=C(C(=O)OC(c2ccccc2)c2ccccc2)N2C(=O)[C@H](Br)[C@H]2S(=O)(=O)C12CC2(c1ccc(Cl)cc1)c1ccc(Cl)cc1 (single isomer, unassigned) = < 4.26
3) CC1=C(C(=O)OC(c2ccccc2)c2ccccc2)N2C(=O)[C@H](Br)[C@H]2S(=O)(=O)C12CC2(c1ccc(F)cc1)c1ccc(F)cc1 (single isomer, unassigned) = < 4.40
4) CCOC(=O)C1CC12C(C)=C(C(=O)OC(c1ccccc1)c1ccccc1)N1C(=O)[C@H](Br)[C@H]1S2(=O)=O (stereo partly drawn) = < 4.40
5) CC1=C(C(=O)OC(c2ccccc2)c2ccccc2)N2C(=O)[C@H](Br)[C@H]2S(=O)(=O)C12CC2(C)c1ccccc1 (stereo partly drawn) = < 4.40
6) CO[C@H]1C(=O)N2C(C(=O)OC(c3ccccc3)c3ccccc3)=C(C)C3(CC3(c3ccccc3)c3ccccc3)S(=O)(=O)[C@H]12 (stereo partly drawn) = < 5.00

* * *

STUDY_SYSTEM: human leukocyte elastase (HLE) (Homo sapiens)
Sequence (P08246 30-247 limits assumed): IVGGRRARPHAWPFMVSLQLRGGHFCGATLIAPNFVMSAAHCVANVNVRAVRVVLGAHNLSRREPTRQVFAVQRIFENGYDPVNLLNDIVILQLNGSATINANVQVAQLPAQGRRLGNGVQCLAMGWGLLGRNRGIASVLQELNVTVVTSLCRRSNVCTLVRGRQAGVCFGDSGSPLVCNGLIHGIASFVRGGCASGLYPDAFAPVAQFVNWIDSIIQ
ASSAY_PROTOCOL: Enzyme Assay for Inhibition of HLE
CONDITION_SUMMARY: HLE 10 nM, pH 7.6, 10 minute preincubation, 30° C.
pIC50: −log10 of the molar value.
Param threshold (8) applies to pIC50; output satisfied when value >= threshold, not satisfied when value < threshold.

1) CCO[C@H]1C(=O)N2C(C(=O)OCC(Cl)(Cl)Cl)=C(C)C3(CC3(c3ccccc3)c3ccccc3)S(=O)(=O)[C@H]12 (stereo partly drawn) [Example 7] = satisfied
2) CO[C@H]1C(=O)N2C(C(=O)N3CCCC3)=C(C)C3(CC3(c3ccccc3)c3ccccc3)S(=O)(=O)[C@H]12 (stereo partly drawn) [Example 10] = not satisfied

* * *

STUDY_SYSTEM: aminopeptidase M (Sus scrofa, UniProt P15145)
Construct: from tissue; host or cells: porcine kidney
Sequence (P15145 whole entry): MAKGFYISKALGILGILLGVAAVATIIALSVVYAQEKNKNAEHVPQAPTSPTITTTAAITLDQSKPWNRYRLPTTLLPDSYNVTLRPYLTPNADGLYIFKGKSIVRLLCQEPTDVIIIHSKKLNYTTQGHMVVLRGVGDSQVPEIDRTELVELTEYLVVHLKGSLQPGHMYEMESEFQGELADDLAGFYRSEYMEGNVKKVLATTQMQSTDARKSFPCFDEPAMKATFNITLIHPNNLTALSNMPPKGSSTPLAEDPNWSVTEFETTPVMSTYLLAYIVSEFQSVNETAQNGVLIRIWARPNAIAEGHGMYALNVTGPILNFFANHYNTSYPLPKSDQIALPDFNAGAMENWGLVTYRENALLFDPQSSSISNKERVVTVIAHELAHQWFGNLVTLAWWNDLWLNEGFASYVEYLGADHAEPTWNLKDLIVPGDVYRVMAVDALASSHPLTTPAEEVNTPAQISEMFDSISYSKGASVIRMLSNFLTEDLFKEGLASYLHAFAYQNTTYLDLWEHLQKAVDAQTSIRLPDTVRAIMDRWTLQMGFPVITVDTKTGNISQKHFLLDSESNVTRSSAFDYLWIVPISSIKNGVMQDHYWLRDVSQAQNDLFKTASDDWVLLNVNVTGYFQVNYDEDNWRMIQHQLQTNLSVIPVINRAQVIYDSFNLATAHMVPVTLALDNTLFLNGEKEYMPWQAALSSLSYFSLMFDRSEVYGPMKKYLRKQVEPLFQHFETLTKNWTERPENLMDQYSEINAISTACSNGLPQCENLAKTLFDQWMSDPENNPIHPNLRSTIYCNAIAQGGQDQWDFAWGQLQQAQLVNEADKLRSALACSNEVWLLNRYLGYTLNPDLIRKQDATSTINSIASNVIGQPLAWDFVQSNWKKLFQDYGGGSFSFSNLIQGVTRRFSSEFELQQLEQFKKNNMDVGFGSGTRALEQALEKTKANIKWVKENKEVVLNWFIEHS
ASSAY_PROTOCOL: Inhibition of aminopeptidase M (ATM)
Type: biochemical, porcine
pIC50: −log10 of the molar value.
RECORDED_ENDPOINT: pIC50

1. CC1=C(C(=O)OC(c2ccccc2)c2ccccc2)N2C(=O)[C@H](Br)[C@H]2S(=O)(=O)C12CC2(c1ccc(F)cc1)c1ccc(F)cc1 (single isomer, unassigned) = < 4.40
2. CO[C@H]1C(=O)N2C(C(=O)N3CCCC3)=C(C)C3(CC3(c3ccccc3)c3ccccc3)S(=O)(=O)[C@H]12 (stereo partly shown) = < 4.40
3. CO[C@H]1C(=O)N2C(C(=O)OCC(Cl)(Cl)Cl)=C(C)C3(CC3(c3ccccc3)c3ccccc3)S(=O)(=O)[C@H]12 (stereo partly shown) = < 5.00
4. CC1=C(C(=O)OC(c2ccccc2)c2ccccc2)N2C(=O)[C@H](Br)[C@H]2S(=O)(=O)C12CC2(c1ccc(Cl)cc1)c1ccc(Cl)cc1 (single isomer, unassigned) = < 4.26
5. CC1=C(C(=O)OC(c2ccccc2)c2ccccc2)N2C(=O)[C@H](Br)[C@H]2S(=O)(=O)C12CC2(C)c1ccccc1 (stereo partly shown) = < 4.40
6. CCOC(=O)C1CC12C(C)=C(C(=O)OC(c1ccccc1)c1ccccc1)N1C(=O)[C@H](Br)[C@H]1S2(=O)=O (stereo partly shown) = < 4.40
7. CO[C@H]1C(=O)N2C(C(=O)OC(c3ccccc3)c3ccccc3)=C(C)C3(CC3(c3ccccc3)c3ccccc3)S(=O)(=O)[C@H]12 (stereo partly shown) = < 5.00

* * *

STUDY_SYSTEM: human leukocyte elastase (HLE) (Homo sapiens)
Sequence (P08246 30-247 limits assumed): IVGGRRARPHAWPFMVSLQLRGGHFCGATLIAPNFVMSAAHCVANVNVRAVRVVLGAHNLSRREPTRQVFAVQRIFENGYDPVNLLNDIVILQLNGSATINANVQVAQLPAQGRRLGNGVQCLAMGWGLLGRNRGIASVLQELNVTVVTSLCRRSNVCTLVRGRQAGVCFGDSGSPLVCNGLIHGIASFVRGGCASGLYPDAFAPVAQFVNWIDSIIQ
ASSAY_PROTOCOL: Enzyme Assay for Inhibition of HLE
CONDITION_SUMMARY: HLE 10 nM, pH 7.6, 10 minute preincubation, 30° C.
pIC50: −log10 of the molar value.
pIC50 reference
RECORDED_ENDPOINT: pIC50

1. CO[C@H]1C(=O)N2C(C(=O)OCC(Cl)(Cl)Cl)=C(C)C3(CC3(c3ccccc3)c3ccccc3)S(=O)(=O)[C@H]12 (stereo partly drawn) = 8.36
2. CO[C@H]1C(=O)N2C(C(=O)OC(c3ccccc3)c3ccccc3)=C(C)C3(CC3(c3ccccc3)c3ccccc3)S(=O)(=O)[C@H]12 (stereo partly drawn) = 8.44
3. COc1ccc(COC(=O)C2=C(CCl)C3(CC3(c3ccccc3)c3ccccc3)S(=O)(=O)[C@@H]3[C@@H](Br)C(=O)N23)cc1 (stereo partly drawn) = 8.39
4. CC1=C(C(=O)OC(c2ccccc2)c2ccccc2)N2C(=O)[C@H](Br)[C@H]2S(=O)(=O)C12CC2(c1ccc(F)cc1)c1ccc(F)cc1 (single isomer, unassigned) = 8.30
5. CCOC(=O)C1CC12C(C)=C(C(=O)OC(c1ccccc1)c1ccccc1)N1C(=O)[C@H](Br)[C@H]1S2(=O)=O (stereo partly drawn) = 7.19
6. Cc1nnc(SCC2=C(C(=O)OC(c3ccccc3)c3ccccc3)N3C(=O)[C@H](Br)[C@H]3[S+]([O-])C23CC3(c2ccc(Cl)cc2)c2ccc(Cl)cc2)s1 (stereo partly drawn) = 7.31
